- System: LMP1 expression in Kem I cells
- experiment.summary: microbe, parasite or virus in culture
- Format: cell-based, EBV
- experimental.context: human gammaherpesvirus 4, 48 h, read-out: Replicate 1-LMP1 Fold Increase, Kem I cells, 2.5 uM, 48 hours, fold change in LMP1 transcript vs vehicle
The entries below come with measured fold induction at 2.5 µM values attached.

With LMP1 expression in Kem I cells as the test system, provide measured fold induction at 2.5 µM for this compound: CCOc1ccc(Cc2cc([C@@H]3O[C@H](CO)[C@@H](O)[C@H](O)[C@H]3O)ccc2Cl)cc1
0.69

Give LMP1 expression in Kem I cells fold induction at 2.5 µM for the following compound: O=C(Nc1cccc(C(F)(F)F)c1)Nc1cc(S(=O)(=O)NC2CC2)ccc1-c1ccsc1
0.42

Write down measured fold induction at 2.5 µM (LMP1 expression in Kem I cells) for this compound. C[C@]12C=CC(=O)N[C@@H]1CC[C@@H]1[C@@H]2CC[C@]2(C)[C@@H](C(=O)Nc3cc(C(F)(F)F)ccc3C(F)(F)F)CC[C@@H]12 [Dutasteride]
0.38

Enter fold induction at 2.5 µM (test system LMP1 expression in Kem I cells) for C=C[C@@]1(C)CC(=O)[C@]2(O)[C@@]3(C)[C@@H](O)CCC(C)(C)[C@@H]3[C@H](O)[C@H](OC(C)=O)[C@@]2(C)O1
1.39

Enter fold induction at 2.5 µM (test system LMP1 expression in Kem I cells) for O=C(O)c1ccc(Nc2ncc3c(n2)-c2ccc(Cl)cc2C(c2c(F)cccc2F)=NC3)cc1
0.27

Under LMP1 expression in Kem I cells, report fold induction at 2.5 µM for CC(NC(=O)c1ccccc1/N=C/c1c(O)ccc2ccccc12)c1ccccc1 (stereo not drawn)
0.28

* * *

- Tested on: LMP1 expression in Kem I cells
- experiment.summary: microbe, parasite or virus in culture
- Assay type: cell-based, EBV
- experimental.context: human gammaherpesvirus 4, 48 h, read-out: Average LMP1 Fold Increase, Kem I cells, 2.5 uM, 48 hours, average of replicates 1 and 2
observation.type: fold induction at 2.5 µM

| compound | fold induction at 2.5 µM |
| --- | --- |
| CCOC(=O)C1=C(COCCN)NC(C)=C(C(=O)OC)C1c1ccccc1Cl (stereo not drawn) | 2.06 |
| O=C(O)/C=C/c1ccc(Cn2ccnc2)cc1 | 1.41 |
| COc1ccc(C(=O)N2CCCC2=O)cc1 | 0.55 |

Please supply the value of reported fold induction at 2.5 µM for the item Nc1cccc2c1C(=O)N(C1CCC(=O)NC1=O)C2=O (stereo not drawn) [Pomalidomide]
5.8

Supply recorded fold induction at 2.5 µM for CCOC(=O)[C@H]1O[C@@H]1C(=O)N[C@@H](CC(C)C)C(=O)NCCC(C)C here.
0.11

* * *

- System: LMP1 expression in Kem I cells
- experiment.summary: microbe, parasite or virus in culture
- Assay type: cell-based, EBV
- experimental.context: human gammaherpesvirus 4, 48 h, read-out: Average LMP1 Fold Increase, Kem I cells, 2.5 uM, 48 hours, average of replicates 1 and 2
Binned fold induction at 2.5 µM; ranges: bottom range = under 0.6, center range = from 0.6 up to 0.9, top range = 0.9 and over

These recorded examples may help you get a feel for the data.
| molecule | experimental.system | group.label |
| --- | --- | --- |
| O=C(NOC[C@H](O)CO)c1ccc(F)c(F)c1Nc1ccc(I)cc1F [PD0325901] | LMP1 expression in Kem I cells | bottom range |
| Cc1c(Cc2ccc3ccccc3n2)c2cc(F)ccc2n1CC(=O)O [OC000459] | LMP1 expression in Kem I cells | bottom range |

// bin(item) where item = COc1cc2c(cc1OC)[C@@H]1Cc3ccc(OC)c(OC)c3CN1CC2 [Rotundine]
bottom range

* * *

Reported fold induction at 2.5 µM values for the following molecules.
- Tested on: LMP1 expression in Kem I cells
- experiment.summary: microbe, parasite or virus in culture
- Assay type: cell-based, EBV
- experimental.context: human gammaherpesvirus 4, 48 h, read-out: Replicate 1-LMP1 Fold Increase, Kem I cells, dose 2.5 uM, 48 hours, LMP1 transcript by in-well qRT-PCR, screen replicate 1
Counter-ions that a name gives are not always drawn.
Lab note: jot down the number only; don't add units.

| molecule | fold induction at 2.5 µM |
| --- | --- |
| COc1cc2c(cc1OC)CN(CCc1ccc(NC(=O)c3cc(OC)c(OC)cc3NC(=O)c3cnc4ccccc4c3)cc1)CC2 [Tariquidar] | 0.56 |
| Oc1nc(-c2ccc(C(F)(F)F)cc2)nc2c1CSCC2 [XAV-939] | 0.73 |

For the next question, use this molecule.
// fetch fold induction at 2.5 µM; item: CC(C)OC(=O)OCOP(=O)(CO[C@H](C)Cn1cnc2c(N)ncnc21)OCOC(=O)OC(C)C [Tenofovir Disoproxil Fumarate] ; system: LMP1 expression in Kem I cells
0.21

* * *

The following compounds are shown together with reported fold induction at 2.5 µM values.
- System: LMP1 expression in Kem I cells
- experiment.summary: microbe, parasite or virus in culture
- Assay type: cell-based, EBV
- experimental.context: human gammaherpesvirus 4, 48 h, read-out: Average LMP1 Fold Increase, Kem I cells, 2.5 uM, 48 hours, average of replicates 1 and 2
Structures can show the parent of a compound that is named as a salt.

Below, 9 compounds whose answers are already recorded.
| compound | fold induction at 2.5 µM |
| --- | --- |
| Nc1nc(CC(=O)Nc2ccc(CCNC[C@H](O)c3ccccc3)cc2)cs1 | 0.75 |
| COc1ccccc1OCCNCC(O)COc1cccc2[nH]c3ccccc3c12 (stereo not shown) | 0.88 |
| CCCCCCCCCCCC1=C(O)C(=O)C=C(O)C1=O | 0.59 |
| COc1ccc(-n2nc(C(N)=O)c3c2C(=O)N(c2ccc(N4CCCCC4=O)cc2)CC3)cc1 | 0.32 |
| CNC(=O)c1cc(Oc2ccc(NC(=O)Nc3ccc(Cl)c(C(F)(F)F)c3)cc2)ccn1 | 0.54 |
| CCc1cccc2c3c([nH]c12)C(CC)(CC(=O)O)OCC3 (stereo not shown) | 0.84 |
| CC(C)C[C@H](NC(=O)CNC(=O)c1cc(Cl)ccc1Cl)B(O)O | 112 |
| COc1cc2nc(N3CCN(C(=O)C4COc5ccccc5O4)CC3)nc(N)c2cc1OC (stereo not shown) [Doxazosin Mesylate] | 0.81 |
| CC[C@@H]1C(=O)N(C)c2cnc(Nc3ccc(C(=O)NC4CCN(C)CC4)cc3OC)nc2N1C1CCCC1 | 12.6 |

// next entry
Please report fold induction at 2.5 µM for the following compound: CCOC(=O)C1=C(C)NC(C)=C(C(=O)OC)C1c1cccc(Cl)c1Cl (stereo not shown)
0.77

* * *

- Test system: LMP1 expression in Kem I cells
- experiment.summary: microbe, parasite or virus in culture
- Type: cell-based, EBV
- experimental.context: human gammaherpesvirus 4, 48 h, read-out: Average LMP1 Fold Increase, Kem I cells, 2.5 uM, 48 hours, average of replicates 1 and 2
Where a name gives a salt, the structure may show the parent alone.
observation.type: fold induction at 2.5 µM
Output: the number by itself.

Here is how some molecules turned out for fold induction at 2.5 µM.
| molecule | fold induction at 2.5 µM |
| --- | --- |
| CC(C)NCC(O)COc1ccc(COCCOC(C)C)cc1 (stereo not shown) [Bisoprolol fumarate] | 1.07 |
| COc1ccccc1Oc1c(NS(=O)(=O)c2ccc(C(C)(C)C)cc2)nc(-c2ncccn2)nc1OCCO [Bosentan Hydrate] | 0.81 |
| C=C[C@@]1(C)CC(=O)[C@]2(O)[C@@]3(C)[C@@H](O)CCC(C)(C)[C@@H]3[C@H](O)[C@H](OC(C)=O)[C@@]2(C)O1 | 1.25 |
| N#CC1(c2ccc(NC(=O)c3cccnc3NCc3ccncc3)cc2)CCCC1 | 0.87 |
| CCOc1ccccc1-n1c(C(C)N2CCN(C(=O)COc3ccc(Cl)cc3)CC2)nc2ccccc2c1=O (stereo not shown) | 0.73 |

For CCC(=O)NCC[C@@H]1CCc2ccc3c(c21)CCO3 , write its fold induction at 2.5 µM.
0.33

Write down fold induction at 2.5 µM measured for item O=C(O)Cn1nnc(-c2cc(N3CCC(Oc4cc(F)ccc4Br)CC3)no2)n1
1.17
